B1: PhoQ; a variant is named by its letters at X, in order, P23837 (parent)
chain: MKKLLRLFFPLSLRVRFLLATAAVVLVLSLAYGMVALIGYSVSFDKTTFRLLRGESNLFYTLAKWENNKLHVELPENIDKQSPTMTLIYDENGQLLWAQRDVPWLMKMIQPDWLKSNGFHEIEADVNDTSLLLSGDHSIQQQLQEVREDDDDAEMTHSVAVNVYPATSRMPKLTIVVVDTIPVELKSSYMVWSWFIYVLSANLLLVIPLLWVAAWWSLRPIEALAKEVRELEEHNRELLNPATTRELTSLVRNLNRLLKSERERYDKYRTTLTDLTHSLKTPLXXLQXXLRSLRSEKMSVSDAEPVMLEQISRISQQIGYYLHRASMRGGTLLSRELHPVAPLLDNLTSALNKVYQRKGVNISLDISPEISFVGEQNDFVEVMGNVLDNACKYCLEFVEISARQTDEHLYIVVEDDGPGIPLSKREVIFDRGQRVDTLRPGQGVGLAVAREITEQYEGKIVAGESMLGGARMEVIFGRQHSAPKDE

Variants of: B1
Assay: enrichment ratio after two sorts for PhoP signalling (ratio (wild type AVST 3.29)); higher = more functional
Conditions: with PhoP (E. coli)
The full ranking holds about 140,000 sequences; the median of “enrichment ratio after two sorts for PhoP signalling” is about 0, and the highest 2% start at about 11. The entries come from a sample that favours the highest values as a whole.
property_measured: enrichment ratio

For orientation, consider the following solved cases.
>>> result("EIRK")
"≤ 0.25"
>>> result("TQSA")
19.8
>>> result("MGDI")
"≤ 0.25"
>>> result("IYDW")
"≤ 0.25"
>>> result("TIFI")
0.264
>>> result("TIDV")
"≤ 0.25"
>>> result("ALEK")
"≤ 0.25"
>>> result("ANAW")
"≤ 0.25"
>>> result("WHNW")
"≤ 0.25"
>>> result("MSEQ")
"≤ 0.25"

Could you tell me which enrichment ratio is on file for `YNEG` ?
≤ 0.25

Which enrichment ratio value is on record for `TSES` ?
2.55

Recorded enrichment ratio of `YAPS` , please.
0.949

Given the entry `TDIN` , report its measured enrichment ratio.
≤ 0.25

Entry `MTYQ` has what enrichment ratio?
2.5

Returns the measured enrichment ratio for the input variant. Input: `HLAW`
≤ 0.25

Record request: enrichment ratio value, item `TQWI`
1.91

Quick one: enrichment ratio of `WVWC` ?
≤ 0.25

# enrichment ratio lookup, item `MGDS`
≤ 0.25

Fill in: enrichment ratio of `TQYE` is ___
35.7

Which enrichment ratio value is on record for `YDLK` ?
≤ 0.25

Dear colleague, I am looking for the recorded enrichment ratio of the following variant: `GTRW`
≤ 0.25

Given the entry `TQCT` , report its measured enrichment ratio.
12.5

Record request: enrichment ratio value, item `LDPK`
≤ 0.25

GET /values?readout=enrichment ratio&item= `DQIV`
≤ 0.25

Would you mind telling me what enrichment ratio value was observed for `RWFN` ?
≤ 0.25

Requested read-out: enrichment ratio. Entry: `TIWV`
≤ 0.25

What does the data say about its enrichment ratio? Entry: `DMMD`
≤ 0.25

Consider the variant shown here: `MGGQ` What is its recorded enrichment ratio?
2.83

Bench note: what enrichment ratio did `NVSA` show?
≤ 0.25

What does the record list as enrichment ratio for `TACL` ?
11.4

Reported enrichment ratio, variant `LQFF` : ____
≤ 0.25

Reported enrichment ratio for `ANWA` : what is it?
≤ 0.25

Item `RIAN` has what recorded enrichment ratio?
≤ 0.25

Dear colleague, I am looking for the recorded enrichment ratio of the following variant: `NQYE`
≤ 0.25

Look at this variant and give its reported enrichment ratio. `MGKI`
≤ 0.25

Name the reported enrichment ratio value associated with the variant `FSHY`
≤ 0.25

Can you share its enrichment ratio? I mean this variant: `IMAF`
≤ 0.25

Would you kindly share the measured enrichment ratio for `MGGA` ?
24.1
